Where these numbers come from: paper PMC6013488

Below, each entry is listed alongside its reported Max Resp.
study.system: CDK9/cyclin K (Homo sapiens, UniProt P50750)
Construct: purchased Invitrogen (ThermoFisher) PV4335
Sequence (P50750 whole entry): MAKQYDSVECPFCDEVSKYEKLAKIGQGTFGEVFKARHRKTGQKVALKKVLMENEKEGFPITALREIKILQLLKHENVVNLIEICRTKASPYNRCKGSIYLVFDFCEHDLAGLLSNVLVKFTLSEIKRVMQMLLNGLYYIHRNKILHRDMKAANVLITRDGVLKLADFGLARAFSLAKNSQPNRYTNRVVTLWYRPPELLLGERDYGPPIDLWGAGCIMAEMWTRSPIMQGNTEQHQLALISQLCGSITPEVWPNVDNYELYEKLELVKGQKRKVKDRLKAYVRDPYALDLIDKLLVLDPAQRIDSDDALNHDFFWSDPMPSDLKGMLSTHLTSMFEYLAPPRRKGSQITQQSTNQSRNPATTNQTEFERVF
Sequence (O75909 whole entry partner): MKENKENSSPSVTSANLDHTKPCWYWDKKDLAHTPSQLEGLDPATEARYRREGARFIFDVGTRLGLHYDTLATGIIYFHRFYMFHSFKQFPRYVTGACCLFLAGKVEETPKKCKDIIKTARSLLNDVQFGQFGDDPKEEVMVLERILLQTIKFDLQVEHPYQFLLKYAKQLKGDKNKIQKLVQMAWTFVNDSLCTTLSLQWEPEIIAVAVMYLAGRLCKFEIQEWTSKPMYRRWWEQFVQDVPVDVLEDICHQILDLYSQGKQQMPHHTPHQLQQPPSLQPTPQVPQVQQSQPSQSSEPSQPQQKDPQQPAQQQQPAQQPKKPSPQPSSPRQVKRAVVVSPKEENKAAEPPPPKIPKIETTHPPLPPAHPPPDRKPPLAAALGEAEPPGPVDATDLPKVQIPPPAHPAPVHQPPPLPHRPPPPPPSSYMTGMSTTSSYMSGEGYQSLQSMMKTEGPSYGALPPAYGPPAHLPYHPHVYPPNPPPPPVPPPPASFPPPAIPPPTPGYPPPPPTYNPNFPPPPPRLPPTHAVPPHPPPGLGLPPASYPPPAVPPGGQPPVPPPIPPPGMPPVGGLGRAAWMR
assay.details: TR-FRET Lanthascreen Eu Kinase Binding assay
experimental.context: in %
readout.type: Max Resp

* COc1ccccc1-c1cc(Nc2cccc(C[S+](N)(=O)[O-])c2)ncn1 | -94.5
* O=C1Cc2c([nH]c3ccc([N+](=O)[O-])cc23)-c2ccccc2N1 | -92.4
* CC(=O)N1CCN(C(=O)Cc2ccc(Nc3ncc(F)c(Nc4ccc(C(=O)Nc5ccccc5Cl)cc4)n3)cc2)CC1 | -83.7
* O=C(Nc1c[nH]nc1-c1nc2ccc(CN3CCOCC3)cc2[nH]1)NC1CC1 | -97.0
* O=C1NC(=O)/C(=C/c2ccc3nccc(-c4ccncc4)c3c2)S1 [GSK-1059615] | -87.0
* N#Cc1ccnc(Nc2cc(C3CCN(C4COC4)CC3)cc(N3CCC(F)(F)C3)n2)c1 | -87.1
